System: Canis familiaris
Protocol text: Total time in minutes elapsed from the initiation of the change until return to the pretest value of heart rate in coronary sinus of anesthetized dog at intravenous dosage of 10 mg/kg
Assay type: functional, Canis lupus familiaris
Given measured Duration, output yes (1) if it is greater than or equal to 20 min and no (0) if not.

// inclusive: Duration at least 20 min? input: Nc1ncnc2c1ncn2C1O[C@H](C(=O)Nc2ccc(F)cc2)[C@@H](O)[C@H]1O (stereo partly specified) no (0)

Try this compound next: CCOC(=O)CNC(=O)[C@H]1OC(n2cnc3c(N)ncnc32)[C@H](O)[C@@H]1O (stereo partly specified) no (0)

Try this compound next: Nc1ncnc2c1ncn2C1O[C@H](C(=O)N2CCOCC2)[C@@H](O)[C@H]1O (stereo partly specified) no (0)

Try this compound next: CC1(C)OC2[C@@H](C(=O)NC3CC3)O[C@@H](n3cnc4c(N)ncnc43)[C@H]2O1 (stereo partly specified) no (0)

Try this compound next: CCN(CC)CCNC(=O)[C@H]1OC(n2cnc3c(N)ncnc32)[C@H](O)[C@@H]1O (stereo partly specified) yes (1)

Try this compound next: CCNC(=O)[C@H]1O[C@@H](n2cnc3c(N)ncnc32)[C@H]2OC(C)(C)OC12 (stereo partly specified) no (0)

Try this compound next: CCC(=O)c1ccccc1NC(=O)[C@H]1OC(n2cnc3c(N)ncnc32)[C@H](O)[C@@H]1O (stereo partly specified) yes (1)

Try this compound next: CN(C)CCNC(=O)[C@H]1OC(n2cnc3c(N)ncnc32)[C@H](O)[C@@H]1O (stereo partly specified) no (0)

Try this compound next: Cc1cccc(C)c1NC(=O)[C@H]1OC(n2cnc3c(N)ncnc32)[C@H](O)[C@@H]1O (stereo partly specified) no (0)

Try this compound next: COc1ccccc1N1CCN(C(=O)[C@H]2OC(n3cnc4c(N)ncnc43)[C@H](O)[C@@H]2O)CC1 (stereo partly specified) yes (1)

Try this compound next: Nc1ncnc2c1ncn2C1O[C@H](C(=O)N2CCCCC2)[C@@H](O)[C@H]1O (stereo partly specified) yes (1)

----------
Protocol text: Lethal dose in mice after peroral administration
Type: toxicity, organism-based
Conditions used: mouse, in vivo, po
Assay endpoint: log10(LD50) (log10 of the value in mg/kg)
Log scale reminder: LD50 in mg/kg, then log10 taken.

log10(LD50) lookup needed for Nc1ncnc2c1ncn2C1O[C@H](C(=O)NCC2CC2)[C@@H](O)[C@H]1O (some centres undefined) , thanks. 2.30

Try this compound next: CCCCCCNC(=O)[C@H]1OC(n2cnc3c(N)ncnc32)[C@H](O)[C@@H]1O (some centres undefined) 2.70

Try this compound next: CN(C)C(=O)[C@H]1OC(n2cnc3c(N)ncnc32)[C@H](O)[C@@H]1O (some centres undefined) 3.00

Try this compound next: CCNC(=O)[C@H]1O[C@@H](n2cnc3c(N)ncnc32)[C@H](O)[C@@H]1O 0.70

Try this compound next: Nc1ncnc2c1ncn2[C@@H]1O[C@H](C(=O)NC2CC2)[C@@H](O)[C@H]1O 0.70

Try this compound next: CNC(=O)[C@H]1O[C@@H](n2cnc3c(N)ncnc32)[C@H](O)[C@@H]1O 1.30

----------
Protocol text: Lethal dose in mice after intraperitoneal administration
Format: toxicity, organism-based
Conditions used: mouse, in vivo, ip
Answer each item with its documented LD50.
Answer format: numeric, mg/kg implied, no suffix.

LD50 lookup needed for CNC(=O)[C@H]1O[C@@H](n2cnc3c(N)ncnc32)[C@H](O)[C@@H]1O , thanks. 5

Try this molecule next: CCN(CC)CCNC(=O)[C@H]1OC(n2cnc3c(N)ncnc32)[C@H](O)[C@@H]1O (some centres undefined) 50

Try this molecule next: NC(=O)[C@H]1OC(n2cnc3c(N)ncnc32)[C@H](O)[C@@H]1O (some centres undefined) 5

Try this molecule next: CN(C)CCNC(=O)[C@H]1OC(n2cnc3c(N)ncnc32)[C@H](O)[C@@H]1O (some centres undefined) 20

Try this molecule next: C=CCNC(=O)[C@H]1OC(n2cnc3c(N)ncnc32)[C@H](O)[C@@H]1O (some centres undefined) 200

Try this molecule next: Nc1ncnc2c1ncn2[C@@H]1O[C@H](C(=O)NC2CCCC2)[C@@H](O)[C@H]1O 200

Try this molecule next: CCOCCNC(=O)[C@H]1OC(n2cnc3c(N)ncnc32)[C@H](O)[C@@H]1O (some centres undefined) 50

Try this molecule next: Nc1ncnc2c1ncn2[C@@H]1O[C@H](C(=O)NC2CC2)[C@@H](O)[C@H]1O 2

Try this molecule next: Nc1ncnc2c1ncn2C1O[C@H](C(=O)Nc2ccc(F)cc2)[C@@H](O)[C@H]1O (some centres undefined) 500

Try this molecule next: CCC(CC)NC(=O)[C@H]1OC(n2cnc3c(N)ncnc32)[C@H](O)[C@@H]1O (some centres undefined) 50

Try this molecule next: Nc1ncnc2c1ncn2C1O[C@H](C(=O)NCCc2ccccc2)[C@@H](O)[C@H]1O (some centres undefined) 500
